molecular target: human Cot catalytic domain (30-397 amino acids) (Homo sapiens); construct: Purified recombinant human Cot catalytic domain (30-397 amino acids) was purchased from Cama Biosciences; purchased Cama Biosciences (so in the source); assay: High Throughput Cot Biochemical Assay (KinEASE TR-FRET); conditions: Cot KinEASE TR-FRET (HTRF) biochemical assay, 400 μM ATP; read-out: IC50 HTRF
Sequence (P41279 30-397): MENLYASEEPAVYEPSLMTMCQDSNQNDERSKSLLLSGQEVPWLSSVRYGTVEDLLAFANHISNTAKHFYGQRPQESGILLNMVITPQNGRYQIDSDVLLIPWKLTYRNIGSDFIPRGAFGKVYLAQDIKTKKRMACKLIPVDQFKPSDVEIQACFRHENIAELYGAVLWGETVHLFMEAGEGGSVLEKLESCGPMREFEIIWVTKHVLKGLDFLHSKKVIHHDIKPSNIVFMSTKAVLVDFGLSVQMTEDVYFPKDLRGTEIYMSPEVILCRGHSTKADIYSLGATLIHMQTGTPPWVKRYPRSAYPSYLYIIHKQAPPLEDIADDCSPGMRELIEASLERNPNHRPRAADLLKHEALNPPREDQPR
observable: IC50 (nM)

Worked examples, 4 molecules total:
{"molecule": "[2H][C@](Nc1cc(F)c2ncc(C#N)c(NC(CCC#N)c3ccccc3)c2c1)(c1cccc(C#N)c1)c1cn(C2CC2)nn1 (stereo partly shown)", "units_symbol": "nM", "IC50": 3}
{"molecule": "CC(C)n1cc([C@@H](Nc2cc(Cl)c3ncc(C#N)c(Nc4ccc(F)c(Cl)c4)c3c2)c2cccc(S(=O)(=O)N(C)C)c2)nn1", "units_symbol": "nM", "IC50": 11}
{"molecule": "[2H][C@](Nc1cc(Cl)c2ncc(C#N)c(N[C@H]3CCC[C@H](O)C3)c2c1)(c1ccc(F)cc1)c1cn(C2CC2)nn1", "units_symbol": "nM", "IC50": 39}
{"molecule": "[2H][C@](Nc1cc(Cl)c2ncc(C#N)c(N[C@H]3CCCC[C@@H]3CO)c2c1)(c1ccc(F)cc1)c1cn(C2CC2)nn1", "units_symbol": "nM", "IC50": 523}

[P] N#Cc1cnc2c(Cl)cc(N[C@@H](c3cccc(Cl)c3)c3cn(C4CC4)nn3)cc2c1Nc1cnc(F)c(F)c1
[Q] [2H][C@@](Nc1cc(Cl)c2ncc(C#N)c(NCC(C)(C)C)c2c1)(c1cn(CC2(O)COC2)nn1)c1ccccc1Cl
[R] CC[C@@H](Nc1c(C#N)cnc2c(Cl)cc(N[C@@H](c3ccc(F)cc3)c3cn(C(C)C)nn3)cc12)c1ccc(C)cc1
Give the ascending ranking of the items by reported IC50. Form entry: ranked labels (order as requested). P, Q, R

[A] N#Cc1cnc2c(Cl)cc(N[C@@H](c3ccc(F)cc3)c3c[nH]nn3)cc2c1NCc1nccs1
[B] [2H][C@](Nc1cc(Cl)c2ncc(C#N)c(NCC(C)(C)C)c2c1)(c1cn(C2CC2(F)F)nn1)c1ccccc1Cl (stereo partly shown)
Select one. Lower IC50: A or B Output the label that corresponds to your choice. B
(B: 19 nM, A: 353 nM)

[1] [2H][C@](Nc1cc(Cl)c2ncc(C#N)c(NC(C)(C)C(C)C)c2c1)(c1ccc(F)cc1)c1cn(C2CC2)nn1
[2] [2H][C@](Nc1cc(Cl)c2ncc(C#N)c(NN3CCCCC3)c2c1)(c1ccc(F)cc1)c1cn(C2CC2)nn1
Select one. Lower IC50: 1 or 2 Output the label that corresponds to your choice. 1

* * *

test system: TNFα production in LPS-stimulated human monocytes; test: Cot Monocyte TNFα Cell Based Assay; conditions: Homo sapiens, Monocyte, LPS-stimulated human monocytes, TNFα TR-FRET; read-out: EC50 TNF
observable: EC50 (µM)

{"compound": "Cc1c(C#N)cccc1[C@H](Nc1cc(C#N)c2ncc(C#N)c(NCC(C)(C)C)c2c1)c1cn(C2(C)CC2)nn1 [Example 1148]", "EC50 / µM": 0.02}

[I] CC[C@@H](Nc1c(C#N)cnc2c(Cl)cc(N[C@H](c3cn(C(F)(F)C(N)=O)nn3)c3ccccc3Cl)cc12)c1ccccc1 [Example 972]
[II] Cc1c(-c2ncco2)cccc1[C@H](Nc1cc(C#N)c2ncc(C#N)c(NCC(C)(C)C)c2c1)c1cn(C2(C(F)(F)F)CC2)nn1 [Example 1055]
[III] Cc1c(-c2cccnc2)cccc1[C@H](Nc1cc(Cl)c2ncc(C#N)c(NCC(C)(C)C)c2c1)c1cn(C2(C(F)(F)F)CC2)nn1 [Example 1096]
[IV] Cc1c(C#N)cccc1[C@H](Nc1cc(Cl)c2ncc(C#N)c(NCC(C)(C)C)c2c1)c1cn(C2(C(N)=O)CCC2)nn1 [Example 1009]
Please rank these compounds by EC50 in descending order. Form entry: ranked labels (order as requested). I, III, II, IV
(I: 0.636 µM, III: 0.262 µM, II: 0.1 µM, IV: 0.067 µM)

[A] CC(C)(C)CNc1c(C#N)cnc2c(C#N)cc(N[C@H](c3cn(C4(C#N)CCC4)nn3)c3ccccc3Cl)cc12 [Example 952]
[B] CC(C)(C)CNc1c(C#N)cnc2c(C#N)cc(N[C@@H](c3ccc(F)cc3)c3cn(C4(C(N)=O)CC4)nn3)cc12 [Example 977]
[C] Cc1c(C#N)cccc1[C@H](Nc1cc(Cl)c2ncc(C#N)c(NCC(C)(C)C(F)(F)F)c2c1)c1cn(C23CC(C2)C3)nn1 [Example 1107]
[D] Cc1c(-c2cnco2)cccc1[C@H](Nc1cc(C#N)c2ncc(C#N)c(NCC(C)(C)C)c2c1)c1cn(C2(C(F)(F)F)CC2)nn1 [Example 1131]
[E] CC(C)(C)CNc1c(C#N)cnc2c(F)cc(N[C@H](c3cn(C4CC4)nn3)c3ccccc3Cl)cc12 [Example 1015]
Give the ascending ranking of the items by reported EC50. Form entry: ranked labels (order as requested). D, C, A, B, E
(D: 0.038 µM, C: 0.065 µM, A: 0.134 µM, B: 0.285 µM, E: 0.462 µM)

[P] Cc1ccccc1[C@H](Nc1cc(C#N)c2ncc(C#N)c(NCC(C)(C)C)c2c1)c1cn(C2(C(F)(F)F)CC2)nn1 [Example 1067]
[Q] Cc1c(-c2ccnnc2)cccc1[C@H](Nc1cc(C#N)c2ncc(C#N)c(NCC(C)(C)C)c2c1)c1cn(C2(C(F)F)CC2)nn1 [Example 1155]
[R] Cc1ccccc1[C@H](Nc1cc(Cl)c2ncc(C#N)c(NCC(C)(C)C)c2c1)c1cn(C2(C(F)F)CC2)nn1 [Example 1060]
Give the ascending ranking of the items by reported EC50. Form entry: ranked labels (order as requested). Q, P, R
(Q: 0.06 µM, P: 0.213 µM, R: 0.311 µM)

[1] [2H][C@](Nc1cc(C#N)c2ncc(C#N)c(NCC(C)(C)C)c2c1)(c1ccc(F)cc1)c1cn(Cc2c(F)cccc2F)nn1 [Example 1078]
[2] CC(C)(C)CNc1c(C#N)cnc2c(C#N)cc(N[C@@H](c3ccc(F)cc3)c3cn(C4(C(N)=O)CCC4)nn3)cc12 [Example 985]
[3] Cc1c(C#N)cccc1[C@H](Nc1cc(C#N)c2ncc(C#N)c(NCC(C)(C)C)c2c1)c1cn([C@@H](C)CF)nn1 [Example 1150]
[4] CC(C)(C)CNc1c(C#N)cnc2c(Cl)cc(N[C@@H](c3ccc(F)cc3)c3cn(C4(C(N)=O)CCC4)nn3)cc12 [Example 992]
Give the ascending ranking of the items by reported EC50. Form entry: ranked labels (order as requested). 3, 4, 2, 1
(3: 0.027 µM, 4: 0.076 µM, 2: 0.119 µM, 1: 0.175 µM)
